test.conditions: human gut metagenome, 24 h, 2 µM; further: call rule not given here
readout: Bacterial Biotransformation

The examples below pair each entry with its known result.
| compound | Bacterial Biotransformation |
| --- | --- |
| CC(C)C[C@H]1C(=O)N2CCC[C@H]2[C@]2(O)O[C@](NC(=O)[C@@H]3C=C4c5cccc6[nH]c(Br)c(c56)C[C@H]4N(C)C3)(C(C)C)C(=O)N12.CS(=O)(=O)O [BROMOCRIPTINE MESYLATE] | Compound metabolized |
| CN(C)CCc1c[nH]c2ccc(CS(=O)(=O)N3CCCC3)cc12 | Compound NOT metabolized |
| CN1CCN(C2=Nc3ccccc3Oc3ccc(Cl)cc32)CC1.O=C(O)CCC(=O)O [LOXAPINE SUCCINATE] | Compound NOT metabolized |
| CC12CC3CC(C)(C1)CC(N)(C3)C2 [MEMANTINE] | Compound NOT metabolized |
| C=C[C@H]1CN2CC[C@H]1C[C@H]2[C@H](O)c1ccnc2ccc(OC)cc12.C=C[C@H]1CN2CC[C@H]1C[C@H]2[C@H](O)c1ccnc2ccc(OC)cc12.O.O.O=S(=O)(O)O [QUININE SULFATE] | Compound metabolized |

Moving on to another compound below.
Q: Consider the compound CC(C)(C)NC[C@H](O)COc1nsnc1N1CCOCC1.O=C(O)/C=C\C(=O)O [TIMOLOL MALEATE] and give its recorded Bacterial Biotransformation.
Ans: Compound NOT metabolized

meta.source: ChEMBL document CHEMBL5724914
